- Tested on: Chaperonin Mm-Cpn (Methanococcus maripaludis)
- Test protocol: Inhibitors of TCP-1 ring complex (TRiC) of Methanococcus maripaludis (MmCpn): qHTS; further: nearly all actives have a fitted effect of over 80% in size
- Test conditions: purified Mm-Cpn ATPase, ADP Transcreener TR-FRET; series mostly up to 76.9 µM
The campaign covered roughly 330,000 compounds. About 100 (0.03%) were called active. Inconclusive results (about 1%) are left out. The call rests on the fitted dose curve; in most records, active means well fitted inhibition curve with a large enough effect; inconclusive means small, poorly fitted or top-dose-only effect; inactive means flat fitted curve, though single readings scatter. Only a selection was taken, and actives are over-represented in it overall.
Write down one outcome, taken from active, inactive

Compound	Label
Cn1c2c(c(=O)n(C)c1=O)C(c1cccc(F)c1)C(C#N)=C(N)O2 (configuration not stated)	inactive
O=C(CSc1nnc(CN2CCCC2)n1-c1ccc(F)cc1)c1ccc2c(c1)OCO2	inactive

Now look at this entry.
# fetch the recorded call for `Cc1ccc(S(=O)(=O)N(Cc2cccc([N+](=O)[O-])c2)C(=O)N2CCN(C)CC2)cc1` here
inactive

---

- System: Chaperonin Mm-Cpn (Methanococcus maripaludis)
- Test protocol: Inhibitors of TCP-1 ring complex (TRiC) of Methanococcus maripaludis (MmCpn): qHTS; further: nearly all actives have a fitted effect of over 80% in size
- Test conditions: purified Mm-Cpn ATPase, ADP Transcreener TR-FRET; series mostly up to 76.9 µM
The campaign covered roughly 330,000 compounds. About 100 (0.03%) were called active. Roughly 1% stayed inconclusive and do not appear here. The call rests on the fitted dose curve; in most records, active means well fitted inhibition curve with a large enough effect; inconclusive means small, poorly fitted or top-dose-only effect; inactive means flat fitted curve, though single readings scatter. This excerpt belongs to a sample that is enriched for actives.
Write down one outcome, taken from active, inactive

Look over these answered cases.
Compound	Label
CCOc1ccccc1NS(=O)(=O)c1cc2c3c(c1)C(C)C(=O)N3CCC2 (stereo unspecified)	inactive
CCC1SC(CC)C(=O)N(CC(=O)NC2CCCCC2)C1=O (stereo unspecified)	inactive
Cn1c2ccc(F)cc2c2nnc(NN)nc21	inactive
Cc1ccc(-n2nc3c(=O)n(C(C)C(=O)NCc4ccc5c(c4)OCO5)nc(C)c3c2C)cc1 (stereo unspecified)	inactive
Cc1ccc2nc(-c3ccccn3)cc(C(=O)Nc3ccc4c(c3)OCO4)c2c1	inactive

# fetch the recorded call for `CN(CC(=O)NCCc1ccc(F)cc1)CC(=O)Nc1ccc(F)c(F)c1F` here
inactive

Next record, please: `COc1ccc2sc(-c3ccccc3OC)c(-c3ccc(OCCN4CCCC4)cc3)c2c1`
inactive

Next record, please: `CCOCc1c(C(=O)N2CCN(Cc3ccc(Br)s3)CC2)oc2ccccc12`
inactive

Next record, please: `CC(=O)c1nn(-c2cccc(C(F)(F)F)c2)c(=O)[nH]c1=O`
inactive

Next record, please: `COc1ccccc1-c1sc2ccccc2c1-c1ccc(C(C)=O)cc1`
active

Next record, please: `COC(=O)c1ccc(/C=C/c2c(-c3ccc(OC)cc3)sc3ccccc23)cc1`
inactive

Next record, please: `CC(=O)c1cn(CCCCCCCCCCn2cc(C(C)=O)c(=O)[nH]c2=O)c(=O)[nH]c1=O`
inactive

Next record, please: `Nc1ccc(Nc2cc(O)c3ncccc3c2)cc1`
inactive

Next record, please: `Cc1nc(COc2cccc(Cl)c2)sc1C(=O)/C=C/N(C)C`
inactive

---

- System: Chaperonin Mm-Cpn (Methanococcus maripaludis)
- Test protocol: Inhibitors of TCP-1 ring complex (TRiC) of Methanococcus maripaludis (MmCpn): qHTS; further: nearly all actives have a fitted effect of over 80% in size
- Test conditions: purified Mm-Cpn ATPase, ADP Transcreener TR-FRET; series mostly up to 76.9 µM
- Description: The eukaryotic chaperonin TRiC (for TCP-1 ring complex) is an essential and conserved chaperone required for the folding and activation of 10-15% of the proteins encoded by the human genome. […] This assay applied the time resolved fluorescence resonance energy transfer (TR-FRET) principle. […] Purified Mm-CPN was supplied by the laboratory of Dr. Judith Frydman. […] Plates were read on the PerkinElmer EnVision plate reader using Excitation = 320 nm and Emission = 590, 665 nm. […]
The campaign covered roughly 330,000 compounds. About 100 (0.03%) were called active. Inconclusive results (about 1%) are left out. Calls come from the whole dose curve; as a rule, active = well fitted inhibition curve with a large enough effect; inconclusive = small, poorly fitted or top-dose-only effect; inactive = flat fitted curve, though single readings scatter. This is one part of a sample in which actives are shown more often than they occur.
Write down one outcome, taken from 1.0 = active, 0.0 = inactive

Look over these answered cases.
Compound	Assay target	Label
O=C(CN1CCN(C(=O)c2ccco2)CC1)Nc1ccc(Cl)c(C(F)(F)F)c1	Chaperonin Mm-Cpn (Methanococcus maripaludis)	0.0
COc1cccc(N2CC(C(=O)NCc3n[nH]c(=O)c4ccccc34)CC2=O)c1 (configuration not stated)	Chaperonin Mm-Cpn (Methanococcus maripaludis)	0.0
CCc1ccc(Nc2n[n+](-c3ccccc3)c(-c3cccc(Cl)c3Cl)s2)cc1	Chaperonin Mm-Cpn (Methanococcus maripaludis)	1.0
O=C(Nc1ccncc1)c1cc(-c2ccccn2)nc2ccc(Br)cc12	Chaperonin Mm-Cpn (Methanococcus maripaludis)	1.0
COc1cc(Br)c(-c2sc(Nc3ccccc3)n[n+]2-c2ccccc2)cc1OC	Chaperonin Mm-Cpn (Methanococcus maripaludis)	0.0

# fetch the recorded call for COC(=O)C1CCN(C(=O)NC2CC(=O)N(c3ccc4c(c3)OCCO4)C2)CC1 (configuration not stated) here
0.0

Next record, please: O=C(CN1CCN(C2CCS(=O)(=O)C2)CC1)N1N=C(c2ccc(Cl)cc2)CC1c1ccco1 (configuration not stated)
0.0
